Entries and their measured P3_MAL Rank (before) follow.
Target: MAL^TIR (Homo sapiens, UniProt P58753)
Construct: MAL (residues 79–221); 6xHis; made in house; host or cells: E. coli BL21 (DE3)
Sequence (P58753 79-221): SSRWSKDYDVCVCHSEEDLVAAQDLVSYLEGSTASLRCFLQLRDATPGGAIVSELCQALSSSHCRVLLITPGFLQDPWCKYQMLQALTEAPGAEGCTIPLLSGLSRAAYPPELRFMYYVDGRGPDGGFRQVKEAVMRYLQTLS
Assay: T‐Surf phage library (P8 and P3) selection against MAL^TIR, four rounds, NGS read counts
Type: binding
Conditions: P3 library, selection against MAL, rank before grouping
recorded endpoint: P3_MAL Rank (before)

1. FMSHLYRYLVQRGV    1200
2. FMSHLYQGLKIVAFL    1204
3. ESILNHPRRSSQILSN    2047
4. SFFWSKLSYHLPAPQH    2991
5. RFFQNKMRYHLQQLQH    2617
6. ESIIYQLHRSSERVAN    2075
7. LKWGDPYFWRKIRYAM    2248
8. DSQSSRFKDDADLVG    1972
9. PNLRNKVLNYLLRTKT    2748
10. KEVEGWRDALTKVANLSGW    3573
11. RPLKWKEALHQFHSRV    2562
12. YAFTGHLHRYLVQRGVHGGD    1396
13. AFCIRRLRVKALRFS    1783
14. NQCRNALTPAAKLSSL    3423
15. LKGESWRQAREKAGKL    2303
16. NQWRNELTAAANLNGW    3405
17. SSFREDLWRLRERSKQ    3187
18. RGLLSQLRHHLQAKDH    2421
19. KWFWDKLIYALSRIR    3495
20. DWSLSKLSQHFLKREK    1909
21. RLLKWQQAMHQFHRWV    2488
22. RHHRGPLGSDLQYHME    2572
23. YAFTGHLHRYLLQRGG    1418
24. WRCLNFVPRCIMCCR    1287
25. NQWRNALTAAAKLSGG    3384
26. HQASWNRLWEQLKPRT    2891
27. YAFTGHLHRYLQAKDH    1419
28. SSFREGLGLLLELGKK    3175
29. KEVEGWRDALAKVASP    3557
30. NQWRNALTAAANLRL    3366
31. YAFTGHLHRYLVQRFA    1393
32. PEKDHGGENAIIKNIE    2639
33. RGFLNQLRQHLHAKDH    2403
34. VLQNFISHPYDFLARK    1688
35. KELEKYQLAILERDFQ    3596
36. RSFRDRLWRHLQLNEK    2575
37. WHLHLRLRMHDLLQQM    1311
38. NQCTDALTAAVVLSGW    3330
39. YAFTSHLYDRLPAPQH    1469
40. PDKDKGGENAFINNIV    2636
41. NQWSNELTAAANLRGW    3420
42. RSLRERLWRLLALSKK    2628
43. KLQECRDTLRKIADFF    3627
44. KMKYWKDALYDASNLS    3703
45. CVYRPSASLSGAAWR    1321
46. YVFTGNLHRYLMQLGV    1341
47. ARFKDMIINKWRTALTQAAN    1847
48. NLWRNALTVAANLSGW    3318
49. YTALTNSGFHTFREM    1548
50. LKVESWRQSREKAGKL    2266
51. DHHLDLPLAKRLNRKFW    1922
52. SSFREGLWRLLELSKLRYAM    3151
53. YNFISHLHRYLVQRGV    1581
54. RNFMSHLYQGLKNRGIFTF    2612
55. LKVESWRQALEKAGT    2274
56. YAFTGHLHRYLVRRSA    1392
57. SFFWNKLRYHLQAKDH    3010
58. HHKGSYGEALHQFHSWV    2842
59. LKVEGWRLALEKAGTL    2258
60. RAFVAHLYEALKKRAN    2451
61. ALHNAFWDRLWTKLAP    1842
62. KGLTEIADLKGKKCDR    3531
63. SSFREGLRRMLELTKI    3176
